B1: Hairpin Ribozyme (parent)
chain: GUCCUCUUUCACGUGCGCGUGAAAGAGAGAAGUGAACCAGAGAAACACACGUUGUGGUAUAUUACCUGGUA

Variants of: B1
Assay: self-cleavage, relative activity (ratio to wild type); higher = more cleavage; co-transcriptional

| var | self-cleavage |
| --- | --- |
| A31U U62C | 0.147 |
| U8C A71C | 1.11 |
| A26U A28G | 1 |
| A30G U53G | 0.157 |
| A24U U62A | 0.2 |
| A43G U58A | 0.128 |
| U52G U70G | 0.933 |
| A24C U53A | 1.08 |
| G29C A64G | 0.124 |
| G29A G40U | 0.0938 |
| C16G A45C | 0.152 |
| C12G U62A | 0.176 |
| A24G G34A | 0.862 |
| G13U G25C | 0.274 |
| A49G U63G | 0.158 |
| U5C U55G | 0.351 |
| G27A G42A | 0.153 |
| U5A C16G | 0.231 |
| A22G G42U | 0.288 |
| G40A U53C | 0.46 |
| C12U A61G | 0.255 |
| A24G A41U | 1.05 |
| A28G U55C | 0.53 |
| C6G U67A | 0.15 |
| A28G A45G | 0.242 |
| C10A A31C | 0.09 |
| G29U U55G | 0.062 |
| C12A A35U | 0.635 |
| U7C G54U | 0.242 |
| C6U A11C | 0.411 |
